Values compiled from patent US12312354B2.

Here, each record is paired with measured pIC50 data.
Molecular target: BLK (Homo sapiens, UniProt P51451)
Sequence (P51451 whole entry): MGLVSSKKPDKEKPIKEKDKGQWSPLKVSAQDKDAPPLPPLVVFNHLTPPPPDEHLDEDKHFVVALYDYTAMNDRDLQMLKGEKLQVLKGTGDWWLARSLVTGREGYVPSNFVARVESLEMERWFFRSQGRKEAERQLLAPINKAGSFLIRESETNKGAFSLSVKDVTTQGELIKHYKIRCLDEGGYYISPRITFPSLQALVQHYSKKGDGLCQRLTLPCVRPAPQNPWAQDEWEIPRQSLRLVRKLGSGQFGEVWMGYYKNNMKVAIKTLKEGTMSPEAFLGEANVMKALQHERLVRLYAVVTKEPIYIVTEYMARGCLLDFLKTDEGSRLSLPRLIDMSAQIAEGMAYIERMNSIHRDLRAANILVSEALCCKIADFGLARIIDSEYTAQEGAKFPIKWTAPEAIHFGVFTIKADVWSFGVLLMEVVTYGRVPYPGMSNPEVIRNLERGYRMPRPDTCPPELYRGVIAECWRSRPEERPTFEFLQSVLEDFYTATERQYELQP
Experiment: In vitro kinase assay, BLK
Type: biochemical
Friendly reminder that pIC50 comes from taking -log10 of the concentration in mol/L.

Supply reported pIC50 belonging to this compound: C=CC(=O)N1CCCC(n2c(C)c(-c3ccc(C(=O)Nc4ccccn4)cc3C)c3c(N)ncnc32)C1 (single isomer, unassigned) [(Sa)-3.10]
7.04

Using the record for C=CC(=O)N1CCC[C@@H](n2cc(-c3ccc(Oc4ccccc4)cc3C)c3c(N)ncnc32)C1 [3.6] , state its measured pIC50.
7.85

Given C=CC(=O)N1CCC[C@H](n2c(C)c(-c3ccc(Oc4ccccc4)cc3C)c3c(N)ncnc32)C1 (single isomer, unassigned) [(Ra)-3.2] , respond with its pIC50.
6.73

Quote pIC50 reported for C=CC(=O)N1CCC[C@H](n2c(C)c(-c3ccc(Oc4ccccc4)cc3)c3c(N)ncnc32)C1 [3.3] please.
6.35

State its pIC50: C=CC(=O)N1CCCC(n2nc(-c3c(C)cc(Oc4ccccc4)cc3C)c3c(N)ncnc32)C1 (stereo not shown) [3.8]
6.76

Identify pIC50 associated with the compound C=CC(=O)N1CCCC(n2c(C)c(-c3ccc(C(=O)Nc4ccccn4)cc3C)c3c(N)ncnc32)C1 (single isomer, unassigned) [(Ra)-3.10]
6.89

Give the measured pIC50 for C=CC(=O)N1CCCC(n2nc(-c3ccc(C(=O)Nc4ccccn4)cc3C)c3c(N)ncnc32)C1 (stereo not shown) [3.11]
7.49
